# studyTarget: P-selectin (Homo sapiens)
# Sequence (P16109 whole entry): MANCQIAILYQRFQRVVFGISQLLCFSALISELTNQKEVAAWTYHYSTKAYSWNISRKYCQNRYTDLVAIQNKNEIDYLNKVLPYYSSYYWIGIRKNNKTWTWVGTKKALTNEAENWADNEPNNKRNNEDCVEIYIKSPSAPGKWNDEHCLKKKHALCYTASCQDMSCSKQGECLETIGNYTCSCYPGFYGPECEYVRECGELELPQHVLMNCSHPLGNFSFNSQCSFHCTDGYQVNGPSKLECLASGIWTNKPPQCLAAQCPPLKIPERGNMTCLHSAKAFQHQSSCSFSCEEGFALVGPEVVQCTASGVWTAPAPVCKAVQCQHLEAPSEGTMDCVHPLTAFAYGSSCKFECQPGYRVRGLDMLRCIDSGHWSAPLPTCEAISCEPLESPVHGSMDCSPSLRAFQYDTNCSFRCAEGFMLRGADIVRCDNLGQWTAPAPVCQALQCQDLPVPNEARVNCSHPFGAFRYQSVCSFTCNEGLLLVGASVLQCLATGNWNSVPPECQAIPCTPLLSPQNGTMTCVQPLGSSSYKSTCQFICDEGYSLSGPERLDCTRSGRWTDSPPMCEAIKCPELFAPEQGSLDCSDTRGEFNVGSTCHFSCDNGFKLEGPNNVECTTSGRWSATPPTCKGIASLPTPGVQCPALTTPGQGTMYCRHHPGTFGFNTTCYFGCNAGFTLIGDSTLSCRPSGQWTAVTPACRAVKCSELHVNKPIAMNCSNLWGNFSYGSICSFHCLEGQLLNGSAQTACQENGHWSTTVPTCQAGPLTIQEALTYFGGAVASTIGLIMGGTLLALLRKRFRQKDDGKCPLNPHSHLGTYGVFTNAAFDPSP
# assayOverview: Antagonist activity at P-selectin (unknown origin) by surface plasmon resonance-based dynamic assay
property: IC50 (µM)
The answer is to be given in µM; state only the numeric part.

Worked examples follow.
INSERT INTO measurements (smilesrepr, studytarget, property, unitslabel, valuemeasured) VALUES
  ('CC(C)OC(=O)[C@H](O[C@H]1O[C@@H](CO)[C@H](OC(=O)c2ccccc2)[C@@H](O[C@@H](Cc2ccccc2)C(=O)O)[C@H]1OC(=O)c1ccccc1)[C@@H](O[C@H]1O[C@@H](C)[C@@H](O)[C@@H](O)[C@@H]1O)C(=O)OCCc1cn(CCCCCOC(=O)[C@H](O[C@@H]2O[C@@H](C)[C@@H](O)[C@@H](O)[C@H]2O)[C@@H](O[C@@H]2O[C@H](CO)[C@H](OC(=O)c3ccccc3)[C@H](O[C@H](Cc3ccccc3)C(=O)O)[C@H]2OC(=O)c2ccccc2)C(=O)OC(C)C)nn1', 'P-selectin (Homo sapiens)', 'IC50', 'µM', 8),
  ('CC(C)OC(=O)[C@H](O[C@@H]1O[C@@H](C)[C@@H](O)[C@@H](O)[C@@H]1O)[C@@H](O[C@@H]1O[C@H](CO)[C@H](OC(=O)c2ccccc2)[C@H](O[C@H](Cc2ccccc2)C(=O)O)[C@H]1O)C(=O)OC(C)C', 'P-selectin (Homo sapiens)', 'IC50', 'µM', 19),
  ('COC(=O)[C@H](O[C@@H]1O[C@@H](C)[C@@H](O)[C@@H](O)[C@@H]1O)[C@@H](O[C@@H]1O[C@H](CO)[C@H](OC(=O)c2ccccc2)[C@H](O[C@H](Cc2ccccc2)C(=O)O)[C@H]1OC(=O)c1ccccc1)C(=O)OC', 'P-selectin (Homo sapiens)', 'IC50', 'µM', 18),
  ('CC(C)OC(=O)[C@H](O[C@@H]1O[C@@H](C)[C@@H](O)[C@@H](O)[C@@H]1O)[C@@H](O[C@@H]1O[C@H](CO)[C@H](OC(=O)c2ccccc2)[C@H](O[C@H](Cc2ccccc2)C(=O)O)[C@H]1OC(=O)c1ccccc1)C(=O)OC(C)C', 'P-selectin (Homo sapiens)', 'IC50', 'µM', 8),
  ('COC(=O)[C@H](O[C@@H]1O[C@H](CO)[C@H](OC(=O)c2ccccc2)[C@H](O[C@H](Cc2ccccc2)C(=O)O)[C@H]1OC(=O)c1ccccc1)[C@@H](O[C@@H]1O[C@@H](C)[C@@H](O)[C@@H](O)[C@@H]1O)C(=O)OC(C)C', 'P-selectin (Homo sapiens)', 'IC50', 'µM', 16);

Attention now turns to another entry.
Can you look up the measured IC50 of CC(C)OC(=O)[C@H](O[C@@H]1O[C@@H](C)[C@@H](O)[C@@H](O)[C@@H]1O)[C@@H](O[C@@H]1O[C@H](CO)[C@H](O)[C@H](O[C@H](Cc2ccccc2)C(=O)O)[C@H]1OC(=O)c1ccccc1)C(=O)OC(C)C for me?
34

Values were extracted from ChEMBL document CHEMBL3352221.
